assay: Dissociation constant, pKa of the compound; format: physicochemical
Quantity measured: pKa
Just the number, please.

Name the reported pKa value associated with the molecule c1cnc2c(c1)C[C@@]1(CN3CCC1CC3)O2 8.9

Name the reported pKa value associated with the molecule O=c1cc(-c2ccccc2)c2ccccc2n1CC1CN2CCC1CC2 (centres undefined) 10.1

Name the reported pKa value associated with the molecule O=c1cc(-c2ccccc2)c2ccccc2n1CC1CNCCO1 (centres undefined) 8.1

Name the reported pKa value associated with the molecule O=c1cc(-c2ccccc2)c2ccccc2n1CC1CN2CCC1(F)CC2 (racemic) 7.6

----------
molecular target: Neuronal acetylcholine receptor subunit alpha-7 (Rattus norvegicus); test: Agonist activity at rat alpha7 nAChR expressed in HEK293 cells assessed as calcium ion influx by FRET assay; format: cell-based
Sequence (Q05941 whole entry): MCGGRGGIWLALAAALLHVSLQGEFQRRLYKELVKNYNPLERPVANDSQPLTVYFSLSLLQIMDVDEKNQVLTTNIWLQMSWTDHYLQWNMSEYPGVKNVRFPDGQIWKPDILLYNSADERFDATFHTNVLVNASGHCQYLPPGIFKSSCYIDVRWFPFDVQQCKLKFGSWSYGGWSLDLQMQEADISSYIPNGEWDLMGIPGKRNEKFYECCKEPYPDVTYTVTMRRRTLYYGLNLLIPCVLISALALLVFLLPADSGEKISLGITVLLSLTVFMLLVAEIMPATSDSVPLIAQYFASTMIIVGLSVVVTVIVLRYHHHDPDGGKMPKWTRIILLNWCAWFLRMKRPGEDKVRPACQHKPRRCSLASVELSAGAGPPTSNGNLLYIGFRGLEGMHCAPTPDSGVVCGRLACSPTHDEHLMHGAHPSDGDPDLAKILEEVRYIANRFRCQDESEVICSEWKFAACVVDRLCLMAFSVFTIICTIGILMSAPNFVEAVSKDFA
Quantity measured: EC50 (nM)
Please state the figure in nM; there is no need to write the unit.

Name the reported EC50 value associated with the compound CNCCCn1c(=O)c(C#N)c(-c2ccccc2)c2ccccc21 900

Name the reported EC50 value associated with the compound O=c1cc(-c2ccccc2)c2ccccc2n1CC1CN2CCC1CC2 (centres undefined) 150

Name the reported EC50 value associated with the compound O=c1cc(-c2ccccc2)c2ccccc2n1CC1CCCNC1 (centres undefined) 210

Name the reported EC50 value associated with the compound CC(=O)NCc1cccc(-c2cc(=O)n(CC3CCCNC3)c3ccccc23)c1 (racemic) 100

----------
assay: Ratio of drug level in brain to plasma in sc dosed rat after 30 mins; format: ADME, organism-based; details: read-out: BPR
Quantity measured: Kp at 0.5 h
Just the number, please.

Name the reported Kp at 0.5 h value associated with the molecule c1cnc2c(c1)C[C@@]1(CN3CCC1CC3)O2 1.7

Name the reported Kp at 0.5 h value associated with the molecule O=c1cc(-c2ccccc2)c2ccccc2n1CC1CNCCO1 (configuration not stated) 0.9

----------
experiment: Ratio of drug level in brain to plasma in ip dosed rat after 30 mins; assay type: ADME, organism-based; settings: read-out: BPR
Quantity measured: Kp at 0.5 h
Just the number, please.

Name the reported Kp at 0.5 h value associated with the molecule O=c1cc(-c2ccccc2)c2ccccc2n1CC1CN2CCC1CC2 (stereo unspecified) 0.02

----------
target: Neuronal acetylcholine receptor subunit alpha-7 (Rattus norvegicus); experiment: Agonist activity at rat alpha7 nAChR expressed in HEK293 cells assessed as area under the curve of acetylcholine-induced response by whole-cell patch clamp electrophysiology paradigm assay relative to control; assay type: cell-based
Can you tell me Emax for the items I'm about to list?
Please state the figure in %; there is no need to write the unit.

Name the reported Emax value associated with the molecule O=c1cc(-c2ccccc2)c2ccccc2n1CC1CCCNC1 (configuration not stated) 30

Name the reported Emax value associated with the molecule CN(C)CCCn1c(=O)c(C#N)c(-c2ccccc2)c2ccccc21 44

Name the reported Emax value associated with the molecule O=c1cc(-c2ccccc2)c2ccccc2n1CC1CNCCO1 (configuration not stated) 41

Name the reported Emax value associated with the molecule O=c1cc(-c2ccccc2)c2ccccc2n1CC1CN2CCC1CC2 (configuration not stated) 110

Name the reported Emax value associated with the molecule CC(=O)NCc1cccc(-c2cc(=O)n(CC3CN4CCC3CC4)c3ccccc23)c1 (racemic) 84

Name the reported Emax value associated with the molecule O=c1cc(-c2cccc3[nH]ccc23)c2ccccc2n1CC1CN2CCC1CC2 (racemic) 80

Name the reported Emax value associated with the molecule CS(=O)(=O)NCc1cccc(-c2cc(=O)n(CC3CN4CCC3CC4)c3ccccc23)c1 (racemic) 97
